test system: ABUTH (Velvetleaf); experiment: Postemergence herbicidal evaluation; assay type: in vivo, Abutilon theophrasti; conditions: Rate 0.0315 kg/ha
RECORDED_ENDPOINT: Postemergence herbicidal rating ABUTH
Write the value as a bare number.

Value lookup for Postemergence herbicidal rating ABUTH; key = CCOC(=O)CN1C(=O)C(Cc2ccccc2OC)SC1=Nc1cc(-n2c(=O)cc(C(F)(F)F)n(C)c2=O)c(F)cc1Cl (stereo not shown) [Compound 37]
9.0

Value lookup for Postemergence herbicidal rating ABUTH; key = COC(=O)CCCN1C(=O)CSC1=Nc1cc(-n2c(=O)cc(C(F)(F)F)n(C)c2=O)c(F)cc1Cl [Compound 29]
7.0

Value lookup for Postemergence herbicidal rating ABUTH; key = CN1C(=O)C(CC(=O)O)SC1=Nc1cc(-n2c(=O)cc(C(F)(F)F)n(C)c2=O)c(F)cc1Cl (stereo not shown) [Compound 63]
6.0

Value lookup for Postemergence herbicidal rating ABUTH; key = C=CCN1C(=O)C(CC(=O)OC)SC1=Nc1cc(-n2c(=O)cc(C(F)(F)F)n(C)c2=O)c(F)cc1Cl (stereo not shown) [Compound 64]
9.0

====

Record form. Attribute: Herbicidal rating CYPIR. Fill in for each entry.
system: CYPIR (Rice Flatsedge); experiment: Postemergence weed control under flooded paddy conditions; format: in vivo, Cyperus iria; conditions: Rate 0.0625 kg/ha, postemergence weeds, rated 3 to 4 weeks after treatment
Write the value as a bare number.

Recorded Herbicidal rating CYPIR for C=CCN1C(=O)C(CC(=O)NS(=O)(=O)CC)SC1=Nc1cc(-n2c(=O)cc(C(F)(F)F)n(C)c2=O)c(F)cc1Cl (stereo not drawn) [Compound 104] with CYPIR (Rice Flatsedge), please?
9.0

Recorded Herbicidal rating CYPIR for CN1C(=O)C(CC(=O)Nc2ccccc2)SC1=Nc1cc(-n2c(=O)cc(C(F)(F)F)n(C)c2=O)c(F)cc1Cl (stereo not drawn) [Compound 91] with CYPIR (Rice Flatsedge), please?
0.0

Recorded Herbicidal rating CYPIR for CCOC(=O)CN1C(=O)C(CC(=O)Nc2ccccc2)SC1=Nc1cc(-n2c(=O)cc(C(F)(F)F)n(C)c2=O)c(F)cc1Cl (stereo not drawn) [Compound 68] with CYPIR (Rice Flatsedge), please?
0.0

Recorded Herbicidal rating CYPIR for C=CCOC(=O)CC1SC(=Nc2cc(-n3c(=O)cc(C(F)(F)F)n(C)c3=O)c(F)cc2Cl)N(CC=C)C1=O (stereo not drawn) [Compound 65] with CYPIR (Rice Flatsedge), please?
7.0

Recorded Herbicidal rating CYPIR for C=CCN1C(=O)C(CC(=O)NC)SC1=Nc1cc(-n2c(=O)cc(C(F)(F)F)n(C)c2=O)c(F)cc1Cl (stereo not drawn) [Compound 84] with CYPIR (Rice Flatsedge), please?
7.0

Recorded Herbicidal rating CYPIR for C=CCN1C(=O)C(CC(=O)OC)SC1=Nc1cc(-n2c(=O)cc(C(F)(F)F)n(C)c2=O)c(F)cc1Cl (stereo not drawn) [Compound 64] with CYPIR (Rice Flatsedge), please?
2.0

====

Record form. Attribute: Herbicidal rating MOOVA. Fill in for each entry.
tested on: MOOVA (Monochoria); test: Preemergence weed control under flooded paddy conditions; format: in vivo, Monochoria vaginalis; conditions: 0.0625 kg/ha, rated 3-4 weeks after treatment
Write the value as a bare number.

Value lookup for Herbicidal rating MOOVA; key = Cn1c(C(F)(F)F)cc(=O)n(-c2cc(N=C3SCC(=O)N3Cc3ccccc3)c(Cl)cc2F)c1=O
9.0

Value lookup for Herbicidal rating MOOVA; key = CCOC(=O)CN1C(=O)CN(C)C1=Nc1cc(-n2c(=O)cc(C(F)(F)F)n(C)c2=O)c(F)cc1Cl
9.0

Value lookup for Herbicidal rating MOOVA; key = CCOC(=O)CN1C(=O)C(CC(N)=O)S/C1=N/c1cc(-n2c(=O)cc(C(F)(F)F)n(C)c2=O)c(F)cc1Cl (centres unmarked)
6.0

Value lookup for Herbicidal rating MOOVA; key = CCOC(=O)CN1C(=O)CS(=O)(=O)C1=Nc1cc(-n2c(=O)cc(C(F)(F)F)n(C)c2=O)c(F)cc1Cl
4.0

Value lookup for Herbicidal rating MOOVA; key = CCOC(=O)CN1C(=O)C(CC(=O)OC)S/C1=N/c1cc(-n2c(=O)cc(C(F)(F)F)n(C)c2=O)c(F)cc1Cl (centres unmarked)
0.0

====

system: CASOB (Sicklepod); test: Postemergence herbicidal evaluation; type: in vivo, Cassia obtusifolia; conditions: Rate 0.0158 kg/ha
Record form. Attribute: Postemergence herbicidal rating CASOB. Fill in for each entry.
Write the value as a bare number.

Value lookup for Postemergence herbicidal rating CASOB; key = CCOC(=O)CN1C(=O)C(CC(=O)OC(C)C)SC1=Nc1cc(-n2c(=O)cc(C(F)(F)F)n(C)c2=O)c(F)cc1Cl (stereo not shown) [Compound 55]
1.0

Value lookup for Postemergence herbicidal rating CASOB; key = Cn1c(C(F)(F)F)cc(=O)n(-c2cc(/N=C3/SC(CC(=O)O)C(=O)N3CC(=O)O)c(Cl)cc2F)c1=O (stereo not shown) [Compound 61]
0.0

Value lookup for Postemergence herbicidal rating CASOB; key = C=CCN1C(=O)C(CC(=O)OC)SC1=Nc1cc(-n2c(=O)cc(C(F)(F)F)n(C)c2=O)c(F)cc1Cl (stereo not shown) [Compound 64]
2.0

Value lookup for Postemergence herbicidal rating CASOB; key = C[C@@H](C(=O)O)N1C(=O)CS/C1=N/c1cc(-n2c(=O)cc(C(F)(F)F)n(C)c2=O)c(F)cc1Cl [Compound 51]
2.0

====

Record form. Attribute: Herbicidal rating AMBEL. Fill in for each entry.
tested on: AMBEL (Ragweed, Common); test: Postemergence herbicidal evaluation; type: in vivo, Ambrosia artemisifolia; conditions: postemergence, rate 0.0156 kg/ha
Write the value as a bare number.

Value lookup for Herbicidal rating AMBEL; key = CCOC(=O)CN1C(=O)C(Br)SC1=Nc1cc(-n2c(=O)cc(C(F)(F)F)n(C)c2=O)c(F)cc1Cl (stereo not shown)
0.0

Value lookup for Herbicidal rating AMBEL; key = Cn1c(C(F)(F)F)cc(=O)n(-c2cc(N=C3SCC(=O)N3Cc3ccc(Cl)c(Cl)c3)c(Cl)cc2F)c1=O
7.0

Value lookup for Herbicidal rating AMBEL; key = Cc1ccccc1CN1C(=O)CSC1=Nc1cc(-n2c(=O)cc(C(F)(F)F)n(C)c2=O)c(F)cc1Cl
9.0

Value lookup for Herbicidal rating AMBEL; key = Cc1ccc(CN2C(=O)CSC2=Nc2cc(-n3c(=O)cc(C(F)(F)F)n(C)c3=O)c(F)cc2Cl)cc1Cl
4.0

Value lookup for Herbicidal rating AMBEL; key = Cn1c(C(F)(F)F)cc(=O)n(-c2cc(N=C3SCC(=O)N3CC(=O)OCC3CCCCC3)c(Cl)cc2F)c1=O
9.0

Value lookup for Herbicidal rating AMBEL; key = C=C1SC(=Nc2cc(-n3c(=O)cc(C(F)(F)F)n(C)c3=O)c(F)cc2Cl)N(CC(=O)OCC)C1=O
3.0

Value lookup for Herbicidal rating AMBEL; key = CC(C)N1C(=O)CSC1=Nc1cc(-n2c(=O)cc(C(F)(F)F)n(C)c2=O)c(F)cc1Cl
7.0

Value lookup for Herbicidal rating AMBEL; key = Cn1c(C(F)(F)F)cc(=O)n(-c2cc(N=C3SCC(=O)N3Cc3ccc(C(F)(F)F)cc3)c(Cl)cc2F)c1=O
7.0

Value lookup for Herbicidal rating AMBEL; key = Cn1c(C(F)(F)F)cc(=O)n(-c2cc(N=C3SCC(=O)N3Cc3ccc(F)cc3)c(Cl)cc2F)c1=O
7.0

Value lookup for Herbicidal rating AMBEL; key = Cn1c(C(F)(F)F)cc(=O)n(-c2cc(N=C3SCC(=O)N3Cc3ccccn3)c(Cl)cc2F)c1=O
7.0

====

tested on: CHEAL (Lambsquarters, Common); experiment: Preemergence herbicidal evaluation; type: in vivo, Chenopodium album; conditions: rate 0.0625 kg/ha; rated 4-5 weeks after treatment
RECORDED_ENDPOINT: CHEAL preemergence herbicidal rating
Write the value as a bare number.

Value lookup for CHEAL preemergence herbicidal rating; key = CCOC(=O)CN1C(=O)C(CC(=O)O)S/C1=N/c1cc(-n2c(=O)cc(C(F)(F)F)n(C)c2=O)c(F)cc1Cl (stereo not shown)
8.8

Value lookup for CHEAL preemergence herbicidal rating; key = CCOC(=O)CN1C(=O)CSC1=Nc1cc(-n2c(=O)cc(C(F)(F)F)n(C)c2=O)c(F)cc1Cl
9.0

Value lookup for CHEAL preemergence herbicidal rating; key = CN(C)N1C(=O)CSC1=Nc1cc(-n2c(=O)cc(C(F)(F)F)n(C)c2=O)c(F)cc1Cl
7.0

Value lookup for CHEAL preemergence herbicidal rating; key = CCOC(=O)CN1C(=O)CN(C)C1=Nc1cc(-n2c(=O)cc(C(F)(F)F)n(C)c2=O)c(F)cc1Cl
9.0

====

Record form. Attribute: herbicidal effect rating, SAGPY. Fill in for each entry.
System: SAGPY (Arrowhead (Pygmaea))
Test: Preemergence weed control under flooded paddy conditions
Type: in vivo, Sagittaria pygmaea
Conditions: 0.0313 kg/ha, rated 3-4 weeks after treatment
Protocol: Results of herbicide evaluation are expressed on a rating scale (0-9). The scale is based upon a visual observation of plant stand, vigor, malformation, size, chlorosis and overall plant appearance as compared with a control. Preemergence herbicidal activity under flooded paddy conditions is determined as follows: plant seeds or propagating organs are planted in the top 0.5 cm of silt loam soil in 32 oz. plastic containers with a diameter of 10.5 cm and no drainage holes. […]

Value lookup for herbicidal effect rating, SAGPY; key = Cn1c(C(F)(F)F)cc(=O)n(-c2cc(N=C3SCC(=O)N3C3CCC3)c(Cl)cc2F)c1=O
0.0

Value lookup for herbicidal effect rating, SAGPY; key = CCOC(=O)CN1C(=O)C(CC(=O)O)SC1=Nc1cc(N2C(=O)CC(C(F)(F)F)CC2=O)c(F)cc1Cl (stereo not drawn)
5.0

Value lookup for herbicidal effect rating, SAGPY; key = Cn1c(C(F)(F)F)cc(=O)n(-c2cc(N=C3SCC(=O)N3Cc3ccc(Cl)c(Cl)c3)c(Cl)cc2F)c1=O
0.0

Value lookup for herbicidal effect rating, SAGPY; key = CCN1C(=O)CSC1=Nc1cc(-n2c(=O)cc(C(F)(F)F)n(C)c2=O)c(F)cc1Cl
0.0

Value lookup for herbicidal effect rating, SAGPY; key = CCOC(=O)CN1C(=O)C(C(=O)OC(C)(C)C)SC1=Nc1cc(-n2c(=O)cc(C(F)(F)F)n(C)c2=O)c(F)cc1Cl (stereo not drawn)
4.0

Value lookup for herbicidal effect rating, SAGPY; key = CN(C)c1ccc(CN2C(=O)CSC2=Nc2cc(-n3c(=O)cc(C(F)(F)F)n(C)c3=O)c(F)cc2Cl)cc1
0.0
